// each record: one item and its pIC50 for HDAC3 (Homo sapiens, UniProt O15379)
Scale explanation: pIC50 corresponds to minus log10 of a concentration expressed in moles per litre.

Measured pIC50 of CCC(CC)(c1ccc(OCC(O)C(C)(C)C)c(C)c1)c1cc(C)c(CCC(=O)NO)s1 (centres unmarked) : 4.33

Summary for this compound, CCC(O)(CC)COc1ccc(C(CC)(CC)c2ccc(OCC(=O)NO)c(C)c2)cc1C : pIC50 is 4.52

---

System: SCC4 cells
Experiment: EdU cell growth assay
Settings: 1,25D-resistant SCC4 cells, Fig. 2e, f
READOUT LABEL: inhibition of proliferation, EdU incorporation

{"COMPOUND": "CCC(O)(CC)COc1ccc(C(CC)(CC)c2ccc(OCC(=O)NO)c(C)c2)cc1C [JF-B54]", "RECORDED RESULT": "completely"}
{"COMPOUND": "CCC(CC)(c1ccc(OCC(=O)NO)c(C)c1)c1ccc(OCC(O)C(C)(C)C)c(C)c1 (racemic) [JF-B01]", "RECORDED RESULT": "completely"}

---

Hi there, I'd appreciate the recorded pIC50 for every entry that follows.
Target: HDAC6 (Homo sapiens, UniProt Q9UBN7)
Sequence (Q9UBN7 whole entry, species assumed): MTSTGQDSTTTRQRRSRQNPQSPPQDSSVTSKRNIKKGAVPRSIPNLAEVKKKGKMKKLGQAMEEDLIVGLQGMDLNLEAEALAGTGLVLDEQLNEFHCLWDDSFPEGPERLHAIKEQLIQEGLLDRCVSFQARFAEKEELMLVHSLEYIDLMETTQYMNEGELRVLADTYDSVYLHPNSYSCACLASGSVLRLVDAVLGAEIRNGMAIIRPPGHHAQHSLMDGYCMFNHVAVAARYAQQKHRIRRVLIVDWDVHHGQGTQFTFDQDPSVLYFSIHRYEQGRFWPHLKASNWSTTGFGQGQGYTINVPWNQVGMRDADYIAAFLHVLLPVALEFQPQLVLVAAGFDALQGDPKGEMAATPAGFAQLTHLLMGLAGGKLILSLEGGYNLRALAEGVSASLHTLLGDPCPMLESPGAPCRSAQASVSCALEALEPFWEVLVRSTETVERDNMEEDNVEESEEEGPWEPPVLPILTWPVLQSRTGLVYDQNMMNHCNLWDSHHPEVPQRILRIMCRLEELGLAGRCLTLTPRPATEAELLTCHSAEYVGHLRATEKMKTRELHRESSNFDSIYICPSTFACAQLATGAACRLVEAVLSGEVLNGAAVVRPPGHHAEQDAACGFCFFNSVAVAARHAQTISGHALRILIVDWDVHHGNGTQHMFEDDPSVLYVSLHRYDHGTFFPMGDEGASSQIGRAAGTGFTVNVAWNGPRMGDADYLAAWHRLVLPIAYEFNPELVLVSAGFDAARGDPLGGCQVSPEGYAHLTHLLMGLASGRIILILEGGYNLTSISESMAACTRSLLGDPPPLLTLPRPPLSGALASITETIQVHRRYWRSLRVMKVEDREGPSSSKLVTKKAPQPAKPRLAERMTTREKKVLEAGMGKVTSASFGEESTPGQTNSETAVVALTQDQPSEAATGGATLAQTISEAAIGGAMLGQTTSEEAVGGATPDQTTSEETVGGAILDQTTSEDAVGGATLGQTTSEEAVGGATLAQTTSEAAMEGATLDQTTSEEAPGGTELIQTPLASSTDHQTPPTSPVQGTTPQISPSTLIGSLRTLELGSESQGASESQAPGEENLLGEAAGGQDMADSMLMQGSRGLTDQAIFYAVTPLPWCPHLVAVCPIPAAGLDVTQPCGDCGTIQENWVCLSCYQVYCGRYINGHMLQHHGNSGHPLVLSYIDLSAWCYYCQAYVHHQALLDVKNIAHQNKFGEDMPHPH
Experiment: Fluorogenic HDAC inhibition assay, purified enzyme
Please note pIC50 is a logarithmic value: minus log10 of concentration in mol/L. Answer with that number alone.

Documented pIC50 of CCC(CC)(c1ccc(CCC(=O)NO)c(C)c1)c1ccc(OC[C@H](O)C(C)(C)C)c(C)c1 : 4.44

get_value(item= CCC(CC)(c1ccc(OCC(O)C(C)(C)C)c(C)c1)c1ccc(C(=O)NCCCCCCC(=O)NO)c(C)c1 (stereo not shown) , readout=pIC50) returns 5.97

Given item CCC(CC)(c1ccc(OCC(=O)NO)c(C)c1)c1ccc(OCC(=O)NO)c(C)c1 , the value recorded as its pIC50 is 5.33

Input CCC(CC)(c1ccc(OCCCCCC(=O)NO)cc1)c1ccc(OCC(O)C(C)(C)C)c(C)c1 (stereo not shown) . Output pIC50: 5.80

Measured pIC50, CCC(CC)(c1ccc(OCCCCC(=O)NO)cc1)c1ccc(OCC(O)C(C)(C)C)c(C)c1 (stereo not shown) : 5.50

For reference, reported pIC50 for CCC(CC)(c1ccc(OCCCCC(=O)NO)c(C)c1)c1ccc(OCC(O)C(C)(C)C)c(C)c1 (stereo not shown) stands at 5.30

pIC50 in this record for CCC(CC)(c1ccc(OCC(O)C(C)(C)C)c(C)c1)c1ccc(C(=O)NCCCCCC(=O)NO)c(C)c1 (stereo not shown) : 5.47

// recorded pIC50 for CCC(CC)(c1ccc(C(=O)NCCCCCC(=O)NO)cc1)c1ccc(OCC(O)C(C)(C)C)c(C)c1 (stereo not shown) : 6.25

The compound listed as CCC(CC)(c1ccc(OCCCC(=O)NO)c(C)c1)c1ccc(OC[C@H](O)C(C)(C)C)c(C)c1 has a reported pIC50 of 4.33
